# target.system: T1, TAFV GP on VSV pseudotype particles (Tai Forest virus (TAFV), UniProt Q66810 33-676)
# T1 sequence: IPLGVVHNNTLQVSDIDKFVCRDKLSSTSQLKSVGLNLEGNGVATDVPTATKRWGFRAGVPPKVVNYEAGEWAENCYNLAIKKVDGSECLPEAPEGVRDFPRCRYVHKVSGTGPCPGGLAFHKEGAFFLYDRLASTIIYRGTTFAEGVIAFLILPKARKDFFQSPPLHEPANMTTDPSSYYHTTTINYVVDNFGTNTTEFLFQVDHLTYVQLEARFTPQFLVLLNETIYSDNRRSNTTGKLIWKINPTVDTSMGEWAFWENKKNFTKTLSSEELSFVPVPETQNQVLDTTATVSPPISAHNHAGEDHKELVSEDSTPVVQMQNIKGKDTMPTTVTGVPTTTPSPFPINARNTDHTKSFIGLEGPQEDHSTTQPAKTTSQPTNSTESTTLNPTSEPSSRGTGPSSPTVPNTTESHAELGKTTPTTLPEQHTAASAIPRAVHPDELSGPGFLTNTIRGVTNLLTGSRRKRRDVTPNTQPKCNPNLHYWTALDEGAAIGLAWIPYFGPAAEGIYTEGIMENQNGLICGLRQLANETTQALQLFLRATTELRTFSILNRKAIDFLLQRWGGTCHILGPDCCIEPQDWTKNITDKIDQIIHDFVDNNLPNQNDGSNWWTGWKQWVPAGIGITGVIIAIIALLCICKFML
# experiment.description: cell-based or functional assay
observable: IC50 (nM), neutralization of rVSV-GP

PE-87 H108A (antibody, V domains shown) VH: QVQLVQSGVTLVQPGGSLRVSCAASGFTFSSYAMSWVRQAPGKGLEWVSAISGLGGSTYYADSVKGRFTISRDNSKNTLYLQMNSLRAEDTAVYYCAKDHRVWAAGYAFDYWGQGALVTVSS VL: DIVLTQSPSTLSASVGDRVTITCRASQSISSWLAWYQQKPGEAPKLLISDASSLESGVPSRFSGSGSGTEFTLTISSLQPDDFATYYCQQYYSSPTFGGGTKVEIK
2.2
PE-87 D110A (antibody, V domains shown) VH: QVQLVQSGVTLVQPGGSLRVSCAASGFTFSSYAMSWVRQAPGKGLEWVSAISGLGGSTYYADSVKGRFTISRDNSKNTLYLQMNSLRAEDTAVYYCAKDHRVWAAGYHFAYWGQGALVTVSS VL: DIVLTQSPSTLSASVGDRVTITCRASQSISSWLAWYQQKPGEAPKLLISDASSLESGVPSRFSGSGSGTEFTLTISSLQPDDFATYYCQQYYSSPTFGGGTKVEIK
2.1
PE-87 R101A (antibody, V domains shown) VH: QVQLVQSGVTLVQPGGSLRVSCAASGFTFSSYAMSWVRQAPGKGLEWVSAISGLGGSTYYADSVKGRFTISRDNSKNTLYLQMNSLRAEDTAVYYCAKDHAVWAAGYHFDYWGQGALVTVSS VL: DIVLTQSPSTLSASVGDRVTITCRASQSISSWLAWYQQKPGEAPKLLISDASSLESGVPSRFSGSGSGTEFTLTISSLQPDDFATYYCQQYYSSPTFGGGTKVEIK
1.9
